All figures here come from paper PMC8449414.

List of Ki values.
Target: rEAAT1 (Rattus norvegicus, UniProt P24942)
Construct: expressed in transfected cells; host or cells: HEK293 (ATCC CRL-11268), transient transfection
Sequence (P24942 whole entry): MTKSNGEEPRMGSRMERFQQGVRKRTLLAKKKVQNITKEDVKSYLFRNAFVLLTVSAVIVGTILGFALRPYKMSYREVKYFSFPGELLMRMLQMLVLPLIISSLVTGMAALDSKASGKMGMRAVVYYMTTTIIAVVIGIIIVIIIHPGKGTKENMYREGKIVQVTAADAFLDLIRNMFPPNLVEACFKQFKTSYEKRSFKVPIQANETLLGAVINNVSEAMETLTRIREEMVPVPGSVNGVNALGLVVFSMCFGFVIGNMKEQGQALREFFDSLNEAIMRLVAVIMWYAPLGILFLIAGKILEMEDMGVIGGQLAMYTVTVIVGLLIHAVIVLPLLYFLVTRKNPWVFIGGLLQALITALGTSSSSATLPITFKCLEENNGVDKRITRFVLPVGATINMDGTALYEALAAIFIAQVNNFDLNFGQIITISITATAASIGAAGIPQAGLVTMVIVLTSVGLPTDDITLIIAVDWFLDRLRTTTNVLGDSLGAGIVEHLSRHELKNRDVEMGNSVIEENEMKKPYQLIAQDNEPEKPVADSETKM
Test: Electrophysiology: SLC1 specificity, anion current in transfected HEK293 cells
Assay type: cell-based
Details: 0 mV, 10 mM glutamate and 130 mM NaSCN internal, No current = no outward current up to highest concentration tested (§ 20-50, || 100-400, # 1500-2500 µM), read-out: Binding affinity Ki
Respond with the bare value in µM.

O=C(O[C@@H]1CN[C@H](C(=O)O)C1)c1ccc(-c2ccc(F)cc2)cc1    0.4
O=C(O[C@@H]1CN[C@H](C(=O)O)C1)c1ccc(C(O)c2ccccc2)cc1 (stereo partly drawn)    39.5

We now examine a further compound.
Ask: I have this compound here, O=C(Nc1ccc(C(=O)O[C@@H]2CN[C@H](C(=O)O)C2)cc1)c1ccc(C(F)(F)F)cc1 , and I need its recorded Ki.
Result: 9.6

###

Molecular target: hASCT2 (Homo sapiens, UniProt Q15758)
Sequence (Q15758 1-541): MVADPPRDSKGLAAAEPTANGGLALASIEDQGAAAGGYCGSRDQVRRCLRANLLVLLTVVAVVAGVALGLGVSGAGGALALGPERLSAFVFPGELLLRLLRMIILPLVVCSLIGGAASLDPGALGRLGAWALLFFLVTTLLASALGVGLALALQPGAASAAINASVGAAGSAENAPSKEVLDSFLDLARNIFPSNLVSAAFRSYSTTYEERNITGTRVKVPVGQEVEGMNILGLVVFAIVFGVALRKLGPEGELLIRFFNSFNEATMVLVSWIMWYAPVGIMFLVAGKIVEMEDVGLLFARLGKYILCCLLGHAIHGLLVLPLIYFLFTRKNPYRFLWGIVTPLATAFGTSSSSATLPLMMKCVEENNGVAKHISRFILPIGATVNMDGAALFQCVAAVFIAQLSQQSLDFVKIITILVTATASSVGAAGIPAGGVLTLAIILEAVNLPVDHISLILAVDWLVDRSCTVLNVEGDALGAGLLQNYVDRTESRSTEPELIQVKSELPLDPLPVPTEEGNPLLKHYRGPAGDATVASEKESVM
Test: Electrophysiology: inhibition of leak anion current in transfected HEK293 cells
Conditions: HEK293 cells, 0 mV, 130 mM NaSCN internal, 140 mM NaCl external; No current = no inhibition of anion leak current up to highest concentration tested (§ 20-50, || 100-400, # 1500-2500 µM); read-out: Binding affinity Ki (apparent Ki)
Endpoint name: Ki (nM)
Respond with the bare value in nM.

O=C(Nc1ccc(C(=O)O[C@@H]2CN[C@H](C(=O)O)C2)cc1)c1ccc(C(F)(F)F)cc1 [ERA-11]    2940
O=C(O[C@@H]1CN[C@H](C(=O)O)C1)c1ccc(-c2ccc(C(F)(F)F)cc2)cc1 [ERA-5]    1050
N[C@@H](COC(=O)c1cccnc1)C(=O)O [ERA-28]    690000
N[C@@H](COC(=O)c1ccc(NC(=O)c2ccccc2)cc1)C(=O)O [ERA-21]    22600
Cc1ccccc1-c1ccc(C(=O)O[C@@H]2CN[C@H](C(=O)O)C2)cc1 [ERA-6]    1120

We now examine a further compound.
Ask: I have this compound here, O=C(O[C@@H]1CN[C@H](C(=O)O)C1)c1ccc(-c2ccc(F)cc2)cc1 [ERA-4] , and I need its recorded Ki.
Result: 740
